Tested on: CCRF-CEM
assay-method-text: NCI tumour cell line growth inhibition, 48 h
Active and inactive are the calls of the source. No stated cut-off is given here; in the data, active = GI50 up to about 1.1 µM and inactive = higher.
Would you mind answering with one of these outcomes? active, inactive

CC(=O)O[C@H]1C(=O)[C@@]2(C)[C@H]([C@H](OC(=O)c3ccccc3)[C@]3(O)C[C@H](OC(=O)[C@H](O)[C@@H](NC(=O)C(C)(C)C)c4ccccc4)C(C)=C1C3(C)C)[C@]1(OC(C)=O)CO[C@@H]1C[C@@H]2O ... active
CN1CN(c2ccccc2)C2(CCN(CC(C)(c3ccc(F)cc3)C3OCCCO3)CC2)C1=O (centres undefined) ... inactive
O=c1[nH]c(=O)n(C2OC(CO)C(N(O)Cc3ccc(F)cc3)C2O)cc1Br (centres undefined) ... inactive

How was N#C/C=C(/NC(=O)Nc1ccccc1)N1CCCC1 classified in this test? inactive

---

Test system: 786-0
assay-method-text: NCI tumour cell line growth inhibition, 48 h
Active and inactive are the calls of the source. Rule as the data show it: active = GI50 up to about 1.1 µM and inactive = higher.
measurement-type: GI50

Some molecules with recorded GI50:
CCCC1(CCC)c2cc(/C=N\O)ccc2-c2ccc(-c3ccc(C(C)(C)C)cc3)cc21 ... 37.4 µM (inactive)
O=C(/C=C(\O)C(=O)O)/C=C(\O)c1ccccc1 ... > 100 µM (inactive)
Cn1nc2ccc(Nc3cc(=O)[nH]c4ccc5nn(C)nc5c34)cc2n1 ... > 100 µM (inactive)
O=C1OC(CN2CCOCC2)CN1/N=C/c1ccc([N+](=O)[O-])o1 (stereo not given) ... 62.7 µM (inactive)

Now for another entry.
Could you tell me which GI50 is on file for COC1=CC2=NCCc3n[nH]c(c32)C1=O ? 18.5 µM (inactive)

---

# GI50 per record follows
Test system: OVCAR-3
assay-method-text: NCI tumour cell line growth inhibition, 48 h
Activity calls are given as the source filed them. No stated cut-off is given here; in the data, active = GI50 up to about 1.1 µM and inactive = higher.

Some compounds with recorded GI50:
CC(C)=NN/C(=N\c1ccc(Cl)cc1)NS(=O)(=O)c1ccc(C)cc1 ... 31.1 µM (inactive)
NC(=O)C#CC#CC#CCO ... 1.9 µM (inactive)
COc1ccc2nc3c(C)cc4ccccc4n3c2c1 ... 71 µM (inactive)
C=CCSC(C)=O ... > 100 µM (inactive)
Cc1ccc(N2C3=C(CC4=C2CC(C)(C)CC4=O)C(=O)CC(C)(C)C3)cc1 ... > 100 µM (inactive)
Cc1cc(=O)oc2c(CN(CCCl)CCCl)c(O)ccc12 ... 80.5 µM (inactive)
COC(=O)c1c2c(cc3c1CC1(Cc4ccccc4C1)C3)CCC2 ... 18.9 µM (inactive)
O=Cc1ccc(-c2nccc3c2[nH]c2ccccc23)o1 ... > 75.7 µM (inactive)

Could you tell me which GI50 is on file for Fc1cccc(C2SCc3nc4ccccc4n32)c1 (stereo not drawn) ? 36.2 µM (inactive)

Please answer likewise for CN1C(=O)C(C#N)C2C[C@@]1(C)Oc1ccccc12 (stereo partly drawn) > 100 µM (inactive)

---

System: BT-549
assay-method-text: NCI tumour cell line growth inhibition, 48 h
Calls of active or inactive are those of the source. Rule as the data show it: active = GI50 up to about 1.1 µM and inactive = higher.
# GI50 per record follows

Cn1nc2ccc(Nc3cc(=O)[nH]c4ccc5nn(C)nc5c34)cc2n1 ... > 100 µM (inactive)
O=C1C(NS(=O)(=O)c2ccccc2)=C(N(Cc2ccccc2)Cc2ccccc2)C(=O)c2ccccc21 ... 16.9 µM (inactive)

Could you tell me which GI50 is on file for O=C(CN1CCN(C(=O)OCc2ccccc2)CCN(CC(=O)N2CCCCC2)CCN(C(=O)OCc2ccccc2)CC1)N1CCCCC1 ? 23.1 µM (inactive)

Please answer likewise for CC1(C)[C@@H]2C[C@H]1[C@@H](Cc1cccc(C[C@H]3c4cc(-c5ccccn5)ncc4[C@H]4C[C@@H]3C4(C)C)c1)c1cc(-c3ccccn3)ncc12 > 100 µM (inactive)

---

Test system: HOP-92
assay-method-text: NCI tumour cell line growth inhibition, 48 h
Activity calls are given as the source filed them. Cut-off read from the data, not from the text of the source: active = GI50 up to about 1.1 µM and inactive = higher.
Would you mind answering with one of these outcomes? 1 (yes) = active, 0 (no) = inactive

How was C/C(=C\CC[C@]1(C)OC(C)(C)OC1CC/C(C)=C/CO[Si](c1ccccc1)(c1ccccc1)C(C)(C)C)CC/C=C/CO[Si](C)(C)C(C)(C)C (stereo partly drawn) classified in this test? 0 (no)

Please answer likewise for O=C1OCOC2(CCCC2)C1c1ccccc1 (stereo not drawn) 0 (no)

Please answer likewise for NNC(=O)CCCCCCCC(=O)O 0 (no)

Please answer likewise for O=c1[nH]c(=O)n(C2OC(CO)C(N(O)Cc3ccc(F)cc3)C2O)cc1Br (stereo not drawn) 0 (no)

Please answer likewise for O=C(O)c1ccc(/C=N/N=C2c3ccccc3-c3ccccc32)cc1 0 (no)

Please answer likewise for CCN(CC)CCN1CCN=C2c3cc(OC)ccc3Nc3c([N+](=O)[O-])ccc1c32 0 (no)

Please answer likewise for COC(=O)CCC(=O)C(C#N)c1ccc(Cl)cc1Cl (stereo not drawn) 0 (no)

Please answer likewise for CC(=O)/N=C1\N/C(=C/c2cc([N+](=O)[O-])ccc2O)CN1C 0 (no)

Please answer likewise for N#Cc1nc(-c2ccccn2)oc1N 0 (no)

Please answer likewise for CNC(=O)NS(=O)(=O)c1ccc(C)cc1.NS(=O)O 0 (no)

Please answer likewise for Nc1c(-c2cn(Cc3ccccc3)c3ccccc23)[n+]([O-])c2ccccc2[n+]1[O-] 0 (no)

Please answer likewise for CCN(CC)CCC1CCCCN1CC(=O)N1c2ccccc2NC(=O)c2ccccc21 (stereo not drawn) 0 (no)

Please answer likewise for CN(C)CCNc1ccc2ncn3c4ccc(O)cc4c(=O)c1c23 0 (no)

Please answer likewise for CCN1/C(=C/C(C)=C/c2sc3ccccc3[n+]2CC)Sc2ccccc21 1 (yes)

Please answer likewise for CO[C@@H]1[C@H](O)CC[C@]2(CO2)[C@H]1[C@@]1(C)O[C@@H]1CC=C(C)C 0 (no)

Please answer likewise for Cc1ccc(/N=C/c2ccc3c(c2)OCO3)cc1C 0 (no)

Please answer likewise for Nc1ccc2c(c1)Nc1c3ccccc3nc3cccc-2c13 0 (no)

Please answer likewise for O=C(O)[C@H](c1ccccc1)[C@@H](C(=O)O)c1ccccc1 0 (no)

---

Tested on: SK-MEL-5
assay-method-text: NCI tumour cell line growth inhibition, 48 h
The source made the active and inactive calls. Cut-off read from the data, not from the text of the source: active = GI50 up to about 1.1 µM and inactive = higher.
Would you mind answering with one of these outcomes? y = active, n = inactive

Cc1nn(-c2ccccc2)c2nc3c(c(C)nn3-c3ccccc3)c(-c3ccc(C(F)(F)F)cc3)c12 ... n
COc1cc(O)c(C(=O)/C=C/c2ccc(OC)c(OCc3ccccc3)c2)c(OC)c1 ... n
CC[C@]1(Cc2ccc(OC)c(OC)c2)C=[N+]([O-])O[C@H](OC2CCCC2(c2ccccc2)c2ccccc2)[C@@H]1OC(=O)C(C)(C)C (stereo not given in full) ... n
Cc1cc(Cl)ccc1NC(=O)C(=O)Cc1nc2ccccc2o1 ... n
COc1ccc(C2=CC(c3ccc4c(c3)OCO4)c3c(c4ccccc4oc3=O)O2)cc1OC (stereo not given) ... y

How was CC(=O)OC1CC2C(=O)C(=O)C1(C)C2(C)C (stereo not given) classified in this test? n

Please answer likewise for CN(C)CCNc1ccc2ncn3c4ccc(O)cc4c(=O)c1c23 y

Please answer likewise for N#C/C=C(/NC(=O)Nc1ccccc1)N1CCCC1 n

Please answer likewise for Cn1nc2ccc(Nc3cc(=O)[nH]c4ccc5nn(C)nc5c34)cc2n1 n

Please answer likewise for COc1cc(NCc2ccc3nc(-c4ccccc4)c(N)nc3c2)cc(OC)c1OC n

Please answer likewise for COc1ccc(-c2cc(C(=O)Nc3cc(C(F)(F)F)cc(C(F)(F)F)c3)c3ccccc3n2)cc1 n

Please answer likewise for Cn1c(=O)c2c(ncn2CCCCOc2ccc3c(c2)[n+]([O-])nc(N)[n+]3[O-])n(C)c1=O n

---

System: OVCAR-5
assay-method-text: NCI tumour cell line growth inhibition, 48 h
Calls of active or inactive are those of the source. Cut-off read from the data, not from the text of the source: active = GI50 up to about 1.1 µM and inactive = higher.
measurement-type: GI50

Some molecules with recorded GI50:
CCCCOCN/C(N)=N/C#N ... > 100 µM (inactive)
CC[C@]1(Cc2ccc(OC)c(OC)c2)C=[N+]([O-])O[C@H](OC2CCCC2(c2ccccc2)c2ccccc2)[C@@H]1OC(=O)C(C)(C)C (stereo not given in full) ... 8.71 µM (inactive)
CN1NC(c2ccccc2)=C(C#N)C(=O)CC1c1ccccc1Cl (stereo not given) ... > 100 µM (inactive)
Nc1c(-c2cn(Cc3ccccc3)c3ccccc23)[n+]([O-])c2ccccc2[n+]1[O-] ... 25.6 µM (inactive)

Could you tell me which GI50 is on file for Cc1cccc(C)c1NC(=S)NC=C(C(N)=O)C(N)=O ? > 100 µM (inactive)

---

Tested on: COLO 205
assay-method-text: NCI tumour cell line growth inhibition, 48 h
Active and inactive are the calls of the source. Rule as the data show it: active = GI50 up to about 1.1 µM and inactive = higher.
Would you mind answering with one of these outcomes? active, inactive

A selection of reference data follows.
COc1ccc(-c2cc(=O)c3c(O)c(OC)c(OC)c(OC)c3o2)cc1 ... inactive
CCN(CC)CCN1CCN=C2c3cc(OC)ccc3Nc3c([N+](=O)[O-])ccc1c32 ... active
CCOC(=O)C(=O)Nc1nc2c(s1)C(=O)c1ccccc1C2=O ... inactive
Cc1cccc(C)c1NC(=S)NC=C(C(N)=O)C(N)=O ... inactive
O=c1oc2ccc3ccccc3c2cc1-c1nc2ccccc2s1 ... inactive
CC(=O)OC1CCn2nnc(CO)c21 (stereo unspecified) ... inactive

How was CN1CN(c2ccccc2)C2(CCN(CC(C)(c3ccc(F)cc3)C3OCCCO3)CC2)C1=O (stereo unspecified) classified in this test? inactive

Please answer likewise for C=CC(C)(C)n1cc(C2=C(O)C(=O)C(c3cn(C(C)(C)C=C)c4ccccc34)=C(OC(C)=O)C2=O)c2ccccc21 inactive

Please answer likewise for COc1ccc(-c2cc(C(=O)Nc3cc(C(F)(F)F)cc(C(F)(F)F)c3)c3ccccc3n2)cc1 inactive

Please answer likewise for CC(C)C1(Cl)CCC2C3(C)CCCC(C)(C(=O)O)C3CC(Cl)C2(Cl)C1Cl (stereo unspecified) inactive

Please answer likewise for O=C1C(NS(=O)(=O)c2ccccc2)=C(N(Cc2ccccc2)Cc2ccccc2)C(=O)c2ccccc21 inactive

Please answer likewise for COc1ccc(Nc2nc(N)c(C(=O)c3ccccc3)s2)cc1 active

Please answer likewise for Nc1nncc2[nH]nnc12 inactive

Please answer likewise for COc1ccc2c(c1)OC[C@@H]1c3cc4c(cc3O[C@H]21)OCO4 inactive

Please answer likewise for CN[C@@H]1C[C@H]2O[C@@](C)([C@@H]1OC)n1c3ccccc3c3c4c(c5c6ccccc6n2c5c31)C(=O)N[C@@H]4O active

Please answer likewise for Cc1nc2ccc(Cl)cc2c2c1CCS2 inactive
